- Test system: SF-539
- assay-protocol: Growth inhibition of human SF539 cells assessed as growth percentage at 10 uM incubated for 48 hrs by sulforhodamine B assay relative to control
- Assay type: functional
- measurement-context: SF-539, 48 h, read-out: Activity
Examples of compounds with documented growth at 10 µM follow.
Numeric only. Scale: %

CC1(C)CC(=O)C2=C(C1)NC(=O)NC2c1ccc2c(c1)OCO2 (racemic) : 106

Query COCCOC(=O)C1=C(C)NC(=O)NC1c1ccc2c(c1)OCO2 (racemic) yields growth at 10 µM of 101

Query CC(=O)C1=C(C)NC(=S)NC1c1ccc2c(c1)OCO2 (racemic) yields growth at 10 µM of 98.7

Query CC1=C(C(=O)OC(C)C)C(c2ccc3c(c2)OCO3)NC(=O)N1 (racemic) yields growth at 10 µM of 100

Query CC1=C(C(=O)OCC(C)C)C(c2ccc3c(c2)OCO3)NC(=O)N1 (racemic) yields growth at 10 µM of 104

###

- Tested on: RXF 393
- assay-protocol: Growth inhibition of human RXF393 cells assessed as growth percentage at 10 uM incubated for 48 hrs by sulforhodamine B assay relative to control
- Type: functional
- measurement-context: RXF 393, 48 h, read-out: Activity
reported-metric: growth at 10 µM (%)
Numeric only. Scale: %

Would you please look over these solved cases?
COCCOC(=O)C1=C(C)NC(=S)N(C(C)=O)C1c1ccc2c(c1)OCO2 (racemic) : 111
CC(=O)N1C(=S)NC(C)=C(C(=O)OCc2ccccc2)C1c1ccc2c(c1)OCO2 (racemic) : 101
CC(=O)C1=C(C)NC(=O)NC1c1ccc2c(c1)OCO2 (racemic) : 95.2
CC(=O)C1=C(C)NC(=S)NC1c1ccc2c(c1)OCO2 (racemic) : 102

Now let's try a different one.
Test item CC(=O)N1C(=S)NC(C)=C(C(=O)OCC(C)C)C1c1ccc2c(c1)OCO2 (racemic) ; RXF 393; reported growth at 10 µM was 106

###

- Tested on: UO-31
- assay-protocol: Growth inhibition of human UO31 cells assessed as growth percentage at 10 uM incubated for 48 hrs by sulforhodamine B assay relative to control
- Type: functional
- measurement-context: UO-31, 48 h, read-out: Activity
reported-metric: growth at 10 µM (%)
Numeric only. Scale: %

Would you please look over these solved cases?
CC1=C(C(=O)OCc2ccccc2)C(c2ccc3c(c2)OCO3)NC(=S)N1 (racemic) : 89.2
CC1=C(C(=O)OC(C)C)C(c2ccc3c(c2)OCO3)NC(=S)N1 (racemic) : 84.5
CC(=O)N1C(=S)NC(C)=C(C(=O)OCC(C)C)C1c1ccc2c(c1)OCO2 (racemic) : 91.8
CC1=C(C(=O)OCc2ccccc2)C(c2ccc3c(c2)OCO3)NC(=O)N1 (racemic) : 83.1

Now let's try a different one.
Query CC(=O)N1C(=S)NC(C)=C(C(=O)OC(C)C)C1c1ccc2c(c1)OCO2 (racemic) yields growth at 10 µM of 91.3

###

Examples of compounds with documented growth at 10 µM follow.
- Tested on: M14
- assay-protocol: Growth inhibition of human M14 cells assessed as growth percentage at 10 uM incubated for 48 hrs by sulforhodamine B assay relative to control
- Format: functional
- measurement-context: M14, 48 h, read-out: Activity
Give your result as the value with the unit written after it.

Would you please look over these solved cases?
CC1=C(C(=O)OC(C)C)C(c2ccc3c(c2)OCO3)NC(=O)N1 (racemic) : 104%
CC(=O)C1=C(C)Nc2nc3ccccc3n2C1c1ccc2c(c1)OCO2 (racemic) : 105%

Now let's try a different one.
Query COCCOC(=O)C1=C(C)NC(=S)N(C(C)=O)C1c1ccc2c(c1)OCO2 (racemic) yields growth at 10 µM of 96.1%

###

- System: MCF7
- assay-protocol: Growth inhibition of human MCF7 cells assessed as growth percentage at 10 uM incubated for 48 hrs by sulforhodamine B assay relative to control
- Type: functional
- measurement-context: MCF7, 48 h, read-out: Activity
reported-metric: growth at 10 µM

Would you please look over these solved cases?
CC1=C(C(=O)OCc2ccccc2)C(c2ccc3c(c2)OCO3)n2c(nc3ccccc32)N1 (racemic) : 9 to 20.6%
COCCOC(=O)C1=C(C)NC(=S)NC1c1ccc2c(c1)OCO2 (racemic) : 89.6%

Now let's try a different one.
Test item O=C1NC2=C(C(=O)c3ccccc32)C(c2ccc3c(c2)OCO3)N1 (racemic) ; MCF7; reported growth at 10 µM was 96.5%

###

Examples of compounds with documented growth at 10 µM follow.
- System: MCF7
- assay-protocol: Growth inhibition of human MCF7 cells assessed as growth percentage at 10 uM incubated for 48 hrs by sulforhodamine B assay relative to control
- Format: functional
- measurement-context: MCF7, 48 h, read-out: Activity
Numeric only. Scale: %

Would you please look over these solved cases?
CC1=C(C(=O)OCc2ccccc2)C(c2ccc3c(c2)OCO3)NC(=O)N1 (racemic) : 101
COCCOC(=O)C1=C(C)NC(=O)NC1c1ccc2c(c1)OCO2 (racemic) : 96.8
CC1=C(C(=O)c2ccccc2)C(c2ccc3c(c2)OCO3)NC(=S)N1 (racemic) : 22

Query CC1=C(C(=O)OC(C)C)C(c2ccc3c(c2)OCO3)NC(=S)N1 (racemic) yields growth at 10 µM of 98.7

Query CC1=C(C(=O)OCc2ccccc2)C(c2ccc3c(c2)OCO3)NC(=S)N1 (racemic) yields growth at 10 µM of 86.8

###

- System: OVCAR-3
- assay-protocol: Growth inhibition of human OVCAR3 cells assessed as growth percentage at 10 uM incubated for 48 hrs by sulforhodamine B assay relative to control
- Assay type: functional
- measurement-context: OVCAR-3, 48 h, read-out: Activity
reported-metric: growth at 10 µM (%)
Numeric only. Scale: %

Would you please look over these solved cases?
COCCOC(=O)C1=C(C)NC(=O)NC1c1ccc2c(c1)OCO2 (racemic) : 110
CC(=O)N1C(=S)NC(C)=C(C(=O)OCC(C)C)C1c1ccc2c(c1)OCO2 (racemic) : 96.8
CC1=C(C(=O)c2ccccc2)C(c2ccc3c(c2)OCO3)NC(=S)N1 (racemic) : 12.9
COCCOC(=O)C1=C(C)NC(=S)N(C(C)=O)C1c1ccc2c(c1)OCO2 (racemic) : 101

Now let's try a different one.
Query CC1=C(C(=O)OC(C)C)C(c2ccc3c(c2)OCO3)NC(=S)N1 (racemic) yields growth at 10 µM of 121

###

- Tested on: RXF 393
- assay-protocol: Growth inhibition of human RXF393 cells assessed as growth percentage at 10 uM incubated for 48 hrs by sulforhodamine B assay relative to control
- Format: functional
- measurement-context: RXF 393, 48 h, read-out: Activity
Examples of molecules with documented growth at 10 µM follow.
Numeric only. Scale: %

COCCOC(=O)C1=C(C)NC(=S)NC1c1ccc2c(c1)OCO2 (racemic) : 101
O=C1C2=C(NC(=S)NC2c2ccc3c(c2)OCO3)c2ccccc21 (racemic) : 107

Test item CC(=O)N1C(=S)NC(C)=C(C(=O)OC(C)C)C1c1ccc2c(c1)OCO2 (racemic) ; RXF 393; reported growth at 10 µM was 111

###

- System: NCI-H322M
- assay-protocol: Growth inhibition of human NCI-H322M cells assessed as growth percentage at 10 uM incubated for 48 hrs by sulforhodamine B assay relative to control
- Format: functional
- measurement-context: read-out: Activity
Examples of molecules with documented growth at 10 µM follow.

Would you please look over these solved cases?
CC(=O)N1C(=S)NC(C)=C(C(=O)OC(C)C)C1c1ccc2c(c1)OCO2 (racemic) : 99.5%
CC1=C(C(=O)OC(C)C)C(c2ccc3c(c2)OCO3)NC(=O)N1 (racemic) : 113%
CC1=C(C(=O)OCc2ccccc2)C(c2ccc3c(c2)OCO3)n2c(nc3ccccc32)N1 (racemic) : 47 to 55%
O=C1NC2=C(C(=O)c3ccccc32)C(c2ccc3c(c2)OCO3)N1 (racemic) : 111%
CC(=O)C1=C(C)NC(=S)NC1c1ccc2c(c1)OCO2 (racemic) : 112%
CC(=O)N1C(=S)NC(C)=C(C(=O)OCC(C)C)C1c1ccc2c(c1)OCO2 (racemic) : 102%

Query CC1=C(C(=O)OCc2ccccc2)C(c2ccc3c(c2)OCO3)NC(=S)N1 (racemic) yields growth at 10 µM of 95.1%

Query CC1=C(C(=O)OCC(C)C)C(c2ccc3c(c2)OCO3)NC(=S)N1 (racemic) yields growth at 10 µM of 117%

Query CC(=O)C1=C(C)NC(=O)NC1c1ccc2c(c1)OCO2 (racemic) yields growth at 10 µM of 104%

Query CC1=C(C(=O)c2ccccc2)C(c2ccc3c(c2)OCO3)NC(=O)N1 (racemic) yields growth at 10 µM of 99.5%

Query CC(=O)C1=C(C)Nc2nc3ccccc3n2C1c1ccc2c(c1)OCO2 (racemic) yields growth at 10 µM of 98.1%
